# Tested on: Jak2V617F in γ2A-FRT-TI-Jak2V617F/STAT3-YFP cells
# protocol summary: STAT3-YFP translocation assay
# Type: cell-based
# test settings: read-out: IC50 values, STAT3-YFP translocation assay
quantity measured: IC50 (nM)
Answers are plain numbers, in nM.

> print(dat)
                            molecule.smiles  recorded.number
1  N#CCNC(=O)c1ccc(-c2ccnc(Nc3ccc(N4CCOCC4)cc3)n2)cc1              459
2  Cc1cnc(Nc2ccc(OCCN3CCCC3)cc2)nc1Nc1cccc(S(=O)(=O)NC(C)(C)C)c1              385
3  O=C(Nc1c[nH]nc1-c1nc2ccc(CN3CCOCC3)cc2[nH]1)NC1CC1               74

Now let's try a different one.
Suppose we examine the molecule `C[C@]12O[C@H](C[C@]1(O)CO)n1c3ccccc3c3c4c(c5c6ccccc6n2c5c31)CNC4=O` ; what IC50 value has been reported? 45
